assay-system: Apoptosis regulator Bcl-2 (Homo sapiens)
Sequence (P10415 whole entry): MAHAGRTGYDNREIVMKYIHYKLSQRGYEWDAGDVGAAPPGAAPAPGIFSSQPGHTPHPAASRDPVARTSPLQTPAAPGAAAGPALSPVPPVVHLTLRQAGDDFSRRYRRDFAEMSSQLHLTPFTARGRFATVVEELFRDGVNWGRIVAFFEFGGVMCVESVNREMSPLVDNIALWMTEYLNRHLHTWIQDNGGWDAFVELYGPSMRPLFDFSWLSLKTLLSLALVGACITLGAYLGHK
measurement-description: BCL-2 TR-FRET Assay: The following assay concentrations and times were used: 3 ng BCL-2, 5 μl of 1:100 anti-His Tb-labeled donor, 5 μl of 1:100 Dye-labeled acceptor, 5 μl of 1:40 BCL-2 Peptide Ligand, and 2 ul of test compound, with 60 min incubation time. The results of the assay were read using a Clariostar (BMG Labtech) plate reader with the following parameters: TR FRET, 340ex/620 and 665em; 60 μsec Delay; and 500 μsec integration.
recorded-endpoint: IC50

Query string: Any idea what IC50 was measured for O=C(c1cc(-c2cc3c(cc2C(=O)N2Cc4ccccc4C[C@H]2CN2CCOCC2)OCO3)n2c1CCCC2)N(Cc1ccccc1F)c1ccc(O)cc1 ?
Result string: < 5 nM
